Task for the reader: assign each of the following compounds its reported normalized growth.
- run description: chemical genetic growth profiling, strain panel (AID 1159580);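 also: tested at 20 µM; growth read once vehicle control cultures reached saturation at 30 °C; 1 = growth at the plate median or of vehicle wells; lower values mean less growth of the strain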
- assay setup: S. cerevisiae deletion strains, growth OD, locus YIL066C, strain RNR3, active compounds read low
The campaign covered roughly 5,500 compounds. About 2,000 (36%) were called active. About 18% were inconclusive and are not listed. The list shows a part of the results.
Answers are plain numbers.

State the recorded normalized growth for every item in the following list.
1. c1ccc2c(c1)CCCC2C1=NCCN1 (configuration not stated)
2. COc1cc([C@@H]2c3cc4c(cc3C(OC3O[C@@H]5COC(C)O[C@H]5[C@H](O)[C@H]3O)C3COC(=O)[C@@H]32)OCO4)cc(OC)c1O (some centres not stated)
3. COC(=O)c1cc(=O)c(O)c2c(O)c(O)ccc2c1
4. COc1ccc(OC)c(C(O)CNC(=O)CN)c1 (configuration not stated)

Response:
[1.01, 0.997, 0.552, 0.969]

Okay, here is my list. What is normalized growth for each of these?
1. CN1CC(CO)=C[C@@H]2c3cccc4[nH]cc(c34)C[C@H]21
2. CNC(=O)O/N=C(\C)SC
3. COC(=O)[C@@H]1OC(=O)C2OC23[C@@]1(C)CCC1[C@]2(C)C(C[C@H](O)[C@]13C)C(C)(C)[C@H](OC(C)=O)C[C@@H]2OC(C)=O (some centres not stated)
4. Cn1c(=O)c2c(ncn2CC(O)CO)n(C)c1=O (configuration not stated)
5. CN1C2CCC1CC(OC(c1ccccc1)c1ccccc1N)C2 (configuration not stated)
6. NS(=O)(=O)c1cc2c(cc1Cl)NC=NS2(=O)=O
7. CN1C2CCC1CC(OC(c1ccccc1)c1ccccc1)C2 (configuration not stated)
8. CN1CCC(OC(c2ccccc2)c2ccccc2)CC1

Response:
[0.983, 1.03, 1.03, 1.01, 0.994, 1.02, 0.952, 1.01]

* * *

- run description: chemical genetic growth profiling, strain panel (AID 1159580)
- assay setup: S. cerevisiae deletion strains, growth OD, locus YAL026C, strain drs2, active compounds read low
Among all 5,500 compounds or so, about 2,000 (36%) were called active. Another 18% or so got no clear call; they are omitted. The list shows a part of the results.
endpoint: normalized growth
Give bare numbers.

Query: Which normalized growth value belongs to CCCCC/C=C/CCC(=O)N[C@H]1[C@H](Oc2c3cc4cc2Oc2ccc(cc2Cl)[C@@H](O[C@@H]2O[C@H](CO)[C@@H](O)[C@H](O)[C@H]2NC(C)=O)[C@@H]2NC(=O)[C@H](NC(=O)[C@@H]4NC(=O)[C@H]4NC(=O)C(Cc5ccc(c(Cl)c5)O3)NC(=O)[C@H](N)c3ccc(O)c(c3)Oc3cc(O)cc4c3)c3ccc(O)c(c3)-c3c(OC4O[C@H](CO)[C@@H](O)[C@H](O)[C@@H]4O)cc(O)cc3[C@@H](C(=O)O)NC2=O)O[C@H](CO)[C@@H](O)[C@@H]1O (some centres undefined) ?
Response: 1

Could you report normalized growth for every entry in the following list?
1. C=CCc1ccc(O)c(OC)c1
2. COc1ccc2c(c1)OC/C(=C/c1ccc(OC)c(OC)c1)C2=O
3. C=CCc1ccc(OC)cc1
4. N=c1ccn2c(n1)OC1C(O)C(CO)OC12 (centres undefined)
5. CC[C@@H]1C=C/C=C/C[C@H](C)[C@@H](O)[C@](C)(O)C(=O)[C@H](C)[C@@H](O)[C@H](C)C(=O)[C@H](C)[C@@H](O)[C@H](C)/C=C/C(=O)O[C@H]2[C@@H](C)[C@@H](CC1)O[C@@]1(CC[C@@H](C)[C@@H](C[C@H](C)O)O1)[C@@H]2C
6. CC(C)NCC(O)COc1cccc2[nH]ccc12 (centres undefined)
7. Cn1c(=O)c2c(ncn2CC(O)CO)n(C)c1=O (centres undefined)

Response:
1: 1; 2: 0.891; 3: 1.03; 4: 1.02; 5: 1.01; 6: 0.986; 7: 0.967

Query: Find the recorded normalized growth belonging to CCN1CCCC(OC(=O)C(c2ccccc2)c2ccccc2)C1 (centres undefined) and report it.
Response: 0.99

* * *

Hi there, I'd appreciate the recorded normalized growth for every entry that follows.
- run description: chemical genetic growth profiling, strain panel (AID 1159580);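 also: tested at 20 µM; growth read once vehicle control cultures reached saturation at 30 °C; 1 = growth at the plate median or of vehicle wells; lower values mean less growth of the strain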
- assay setup: S. cerevisiae deletion strains, growth OD, locus YGR229C, strain SMI1, active compounds read low
Screen size: about 5,500 compounds; about 2,000 (36%) were called active. Roughly 18% stayed inconclusive and do not appear here. Some of the results follow.
Answers are plain numbers.

# example entries with known answers
Query: # input molecule: CN(C)CCCC1(c2ccc(F)cc2)OCc2cc(C#N)ccc21 (centres undefined) ; wanted: its normalized growth
Response: 1.01

Query: Now give it for C/C(=C\C(=O)Nc1ccc(F)cc1)Nc1ccc(F)cc1 too.
Response: 0.979

Query: Also Clc1ccc(C(c2ccc(Cl)cc2)C(Cl)(Cl)Cl)cc1 ?
Response: 0.997

Next molecule, please.
Query: Requested field: normalized growth. Item: Cc1ccc(C(=O)Nc2ccc(S(=O)(=O)O)c3cc(S(=O)(=O)O)cc(S(=O)(=O)O)c23)cc1NC(=O)c1cccc(NC(=O)Nc2cccc(C(=O)Nc3cc(C(=O)Nc4ccc(S(=O)(=O)O)c5cc(S(=O)(=O)O)cc(S(=O)(=O)O)c45)ccc3C)c2)c1
Response: 1.04

* * *

- run description: chemical genetic growth profiling, strain panel (AID 1159580);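 also: tested at 20 µM; growth read once vehicle control cultures reached saturation at 30 °C; 1 = growth at the plate median or of vehicle wells; lower values mean less growth of the strain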
- assay setup: S. cerevisiae deletion strains, growth OD, locus YPR141C, strain kar3, active compounds read low
Out of some 5,500 compounds screened, about 2,000 (36%) were called active. Roughly 18% stayed inconclusive and do not appear here. The list shows a part of the results.
endpoint: normalized growth
Numbers only.

Fill in normalized growth for each of the 8 molecules listed.
1. O=C1NCC2(CCN(CCc3ccccc3)CC2)O1
2. Clc1ccc(C(OCCN2CCCCC2)c2ccccc2)cc1 (configuration not stated)
3. Clc1ccc(C(c2ccc(Cl)cc2)C(Cl)(Cl)Cl)cc1
4. NS(=O)(=O)c1cc2c(cc1Cl)NC=NS2(=O)=O
5. Cc1ccccc1C(OCCN(C)C)c1ccccc1 (configuration not stated)
6. Cn1c(=O)c2c(ncn2CC(O)CO)n(C)c1=O (configuration not stated)
7. C=C[C@@](C)(O)CCC1C(=C)C[C@H](O)C2C(C)(C)CCCC12C (some centres not stated)
8. COc1ccc(C(c2ccc(OC)cc2)C(Cl)(Cl)Cl)cc1

Response:
1: 0.997; 2: 0.993; 3: 1.01; 4: 0.997; 5: 0.994; 6: 0.95; 7: 1.03; 8: 0.994

* * *

Please go through the items and note down their normalized growth.
- run description: chemical genetic growth profiling, strain panel (AID 1159580);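 also: tested at 20 µM; growth read once vehicle control cultures reached saturation at 30 °C; 1 = growth at the plate median or of vehicle wells; lower values mean less growth of the strain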
- assay setup: S. cerevisiae deletion strains, growth OD, locus YAL013W, strain DEP1, active compounds read low
Among all 5,500 compounds or so, about 2,000 (36%) were called active. Not shown: some 18% with an inconclusive outcome. This is one part of the list.
Give bare numbers.

Query: Name the recorded normalized growth for CCCCCCC(C)OC(=O)COc1cc(Cl)c(Cl)cc1Cl (stereo not drawn) .
Response: 0.994

Query: Next up: CC(C)(C)S(=O)(=O)/C(C#N)=C/c1ccc(F)cc1F
Response: 0.995

Query: Param item: COc1c(N2CCNC(C)C2)c(F)cc2c(=O)c(C(=O)O)cn(C3CC3)c12 (stereo not drawn)
Response: 0.984

Query: Try the molecule Cc1nc(N)ncc1Sc1ccccc1
Response: 0.995

Required: normalized growth, one value per molecule below.
1. COc1ccc(C(CN(C)C)C2(O)CCCCC2)cc1 (stereo not drawn)
2. COC(=O)C[C@H]1C2(C)CC34OC5(C)O[C@@]6([C@H](OC)C(OC(=O)C(C)C)[C@]7(C)C(/C(=C(/OC)C(C)C)C(=O)O[C@H]7c7ccoc7)[C@@]6(O5)[C@H](OC)[C@@]3(OC)C2OC(C)=O)[C@]14C (stereo partly drawn)
3. CCC(C)C(=O)OC1CC2(C)C(c3ccoc3)OC(=O)CC23OC2(C)OC34C(OC(=O)C(C)C)C3(O)C(OC(=O)C5(C)OC5C)C5(C)CC3(O)C(C)(C5C(=O)OC)C14O2 (stereo not drawn)
4. Cn1c(=O)c2c(ncn2CC(O)CO)n(C)c1=O (stereo not drawn)

Response:
1. 1.01
2. 1.02
3. 1.02
4. 1.01

Give measured normalized growth for every item shown.
1. N#CCCN(CC1CCCO1)C(=S)Nc1cc(C(F)(F)F)cc(C(F)(F)F)c1 (stereo not drawn)
2. C[C@H]1COc2c(N3CCN(C)CC3)c(F)cc3c(=O)c(C(=O)O)cn1c23
3. COc1cc(CNC(=O)CCCC/C=C/C(C)C)ccc1O
4. O=C(O)c1cncc(C#Cc2ccccc2)c1
5. CC1COc2c(N3CCN(C)CC3)c(F)cc3c(=O)c(C(=O)O)cn1c23 (stereo not drawn)
6. C[C@@H]1CC(Cl)CC[C@H]1C(=O)OC(C)(C)C (stereo partly drawn)
7. NCCC(O)C(=O)NC1CC(N)C(OC2OC(CN)C(O)C(O)C2N)C(OC2OC(CO)C(O)C2O)C1O (stereo not drawn)
8. COc1ccc(C(=O)O)cc1OC

Response:
1. 1.01
2. 1
3. 1.01
4. 0.982
5. 0.993
6. 0.987
7. 1.04
8. 1.02

Count: 7. Required value per item: normalized growth.
1. CC1(C)CCC[C@@]2(C)C1[C@@H](O)C[C@]1(C)C2CC[C@@H]2[C@@]3(C)CC[C@H](C(C)(C)O)[C@@H]3CC[C@@]21C (stereo partly drawn)
2. Cc1onc(-c2c(Cl)cccc2Cl)c1-c1nc(-c2ccc3c(c2)OCCO3)cs1
3. NC(=O)c1ccc[n+]([C@@H]2O[C@H](COP(=O)([O-])OP(=O)(O)OC[C@H]3O[C@@H](n4cnc5c(N)ncnc54)[C@H](OP(=O)(O)O)[C@@H]3O)[C@@H](O)[C@H]2O)c1
4. CCCCCCN(CCCCCC)C(=O)Cc1c(-c2ccc(F)cc2)[nH]c2ccccc12
5. C=CCc1ccc(O)c(OC)c1
6. COc1ccc(-c2coc3cc(O)ccc3c2=O)c(OC)c1
7. C[C@@H]1O[C@@H](O[C@H]2[C@H](Oc3cc(O)c4c(=O)cc(-c5ccc(O)cc5)oc4c3)O[C@H](CO)[C@@H](O)[C@@H]2O)[C@H](O)[C@H](O)[C@H]1O

Response:
0.998
1.01
1.02
1.03
0.971
1.01
0.994

Report normalized growth for each item below.
1. CSc1nc2ccccc2[nH]1
2. COC(=O)CC1C2(C)CC34OC5(C)OC6(C7/C(=C(/O)C(C)C)C(=O)OC(c8ccoc8)C7(C)C(OC(=O)C(C)C)C(OC)C6(O5)C13C)C(OC)C4(OC)C2OC(C)=O (stereo not drawn)
3. Oc1cc(O)c2c(c1)OC(c1cc(O)c(O)c(O)c1)C(O)C2c1c(O)cc(O)c2c1OC(c1cc(O)c(O)c(O)c1)C(O)C2c1c(O)cc(O)c2c1OC(c1cc(O)c(O)c(O)c1)C(O)C2 (stereo not drawn)
4. CN(C)C=Nc1ncccc1OCc1ccc(Cl)c(Cl)c1
5. C=C[C@@](C)(O)CCC1C(=C)C[C@H](O)C2C(C)(C)CCCC12C (stereo partly drawn)
6. Clc1ccc(C(c2ccc(Cl)cc2)C(Cl)(Cl)Cl)cc1

Response:
[0.987, 0.997, 0.977, 0.973, 1.01, 1]

For each of the molecules below, note its normalized growth.
1. O=C(NNC(=S)Nc1cccc(Cl)c1)c1ccncc1
2. CN1CC(=O)N=C1N
3. CCC(C)C(=O)O[C@@H]1C[C@@]2(C)[C@H](c3ccoc3)OC(=O)CC23OC2(C)O[C@]14[C@]1(C)[C@@H](CC(=O)OC)C5(C)CC1(O)[C@](O)(C5OC(=O)C1(C)OC1C)[C@@H](OC(C)=O)[C@]34O2 (stereo partly drawn)
4. COc1cc(CC(=O)O)ccc1O
5. c1ccc(OCCOc2ccccn2)nc1
6. C#CCN(C)Cc1ccccc1

Response:
[0.977, 1.01, 1.02, 1, 1.03, 0.994]

Each of the following entries comes with a recorded value; kindly state normalized growth for each.
1. CC(=O)c1c(O)c(C)c(O)c(Cc2c(O)c3c(c(C(=O)/C=C/c4ccccc4)c2O)OC(C)(C)C=C3)c1O
2. CC1CCc2cc(F)cc3c(=O)c(C(=O)O)cn1c23 (stereo not drawn)

Response:
1. 0.909
2. 0.985

Query: I am curious: what normalized growth value has been reported for CCOC(=O)N=Nc1c(O)[nH]c2ccc(F)cc12 ?
Response: 1.01
